B1: INTS3 (parent)
chain: YPPLEGHVRQGVFSSLNHIVEKRV

- Variants of: B1
- protocolDetails: protein stability index of a GFP-peptide fusion (GPS, HEK-293T) (PSI 1-6); higher = more stable;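 further: lentivirally expressed fusions sorted by FACS into six bins by GFP to DsRed ratio, PSI derived from sequencing read proportions per bin multiplied by bin number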
- experimentalConditions: c terminus: a fixed tail appended
measureName: protein stability index

>>> quantitativereadout("YPPVEGHVRQGVFSSLNHIVEKRV [L4V]")
3.04
>>> quantitativereadout("YPPLEGHVRQGVFSDLNHIVEKRV [S15D]")
2.95
>>> quantitativereadout("YPPLEGHVHQGVFSSLNHIVEKRV [R9H]")
2.96
>>> quantitativereadout("YPPLEGHVRQGVFSSHNHIVEKRV [L16H]")
2.94
